These measurements were taken from ChEMBL document CHEMBL1156776.

# METHOD_NOTES: Stability in mouse plasma assessed as compound remaining after 15 mins relative to basal level
# Assay type: ADME, cell-free
# MEASUREMENT_SETUP: read-out: Stability

CHEMICAL_STRING	remaining at 0.25 h / %
COC[C@H]1OC(=O)/C(=C\N(C)CCCN(C)C)C2=C(O)C(=O)C3=C([C@H](OC(C)=O)C[C@]4(C)[C@@H](OC(=O)CCCCCCC(=O)O[C@@H]5CC[C@@H](C[C@@H](C)[C@@H]6CC(=O)[C@H](C)/C=C(\C)[C@@H](O)[C@@H](OC)C(=O)[C@H](C)C[C@H](C)/C=C/C=C/C=C(\C)[C@@H](OC)C[C@@H]7CC[C@@H](C)[C@@](O)(O7)C(=O)C(=O)N7CCCC[C@H]7C(=O)O6)C[C@H]5OC)CC[C@@H]34)[C@]21C	39
